Assay: Cell Titer Glo 2.0 cell viability assay
Conditions: human, K562 cells
Structures can show the parent of a compound that is named as a salt.
RECORDED_ENDPOINT: GI50 at 72 h

> print(dat)
                                   molecule   recorded.result
1  Cc1nc(-c2nc3ncn(C4CCNCC4)c(=O)c3s2)cc2cn(C)nc12  1000 to 10000 nM
2  Cc1cn2cc(-c3cc4ncn([C@H]5CCN[C@@H](C)C5)c(=O)c4s3)cc(F)c2n1 (relative stereo) [Compound 278, hydrochloride]    100 to 1000 nM
3  Cc1cn2cc(-c3nc4sc(C5CCNCC5)cc4c(=O)[nH]3)cc(F)c2n1    100 to 1000 nM
4  Cc1cc(-c2cc3ccn(C4CCNCC4)c(=O)c3s2)cc2cn(C)nc12  1000 to 10000 nM

Note: attention shifts to another entry.
Looking up Cc1cn2nc(-c3cc(=O)n4cc(N5CCNC6(CC6)C5)sc4n3)cc(C)c2n1 , I see its GI50 at 72 h listed as 1000 to 10000 nM
